Listed compounds paired with reported EC50
tested on: HBV; assay: Anti-HBV activity in vitro: quantification of extracellular HBV DNA by direct qPCR in HepAD38 cells; format: cell-based; conditions: Hepatitis B virus, doxycycline-free medium, 96 hours at 37°C, 8-point dose-response curve, read-out: HBV inh EC50

[
  {
    "compound": "C[C@H](NC(=O)C(=O)N1CCC2(CC1)COc1c(cn(C)c1C(=O)Nc1ccc(F)c(C(F)F)c1)S(=O)(=O)N2)C(F)(F)F [Example E14]",
    "EC50": "< 500 nM"
  },
  {
    "compound": "C[C@@H](NC(=O)C(=O)N1CC[C@]2(COc3c(cn(C)c3C(=O)Nc3ccc(F)c(C(F)F)c3)S(=O)(=O)N2)C1)C(F)(F)F [Example E6]",
    "EC50": "< 500 nM"
  },
  {
    "compound": "C[C@@H](NC(=O)C(=O)N1CC2(COc3c(cn(C)c3C(=O)Nc3ccc(F)c(C(F)F)c3)S(=O)(=O)N2)C1)C(F)(F)F [Example E10]",
    "EC50": "< 500 nM"
  },
  {
    "compound": "C[C@H](NC(=O)C(=O)N1CC2(COc3c(cn(C)c3C(=O)Nc3ccc(F)c(Cl)c3)S(=O)(=O)N2)C1)C(F)(F)F [Example E16]",
    "EC50": "< 500 nM"
  }
]

Now let's try a different one.
Identify measured EC50 corresponding to C[C@@H](NC(=O)C(=O)N1CCC2(CC1)COc1c(cn(C)c1C(=O)Nc1ccc(F)c(C(F)F)c1)S(=O)(=O)N2)C(F)(F)F [Example E8]
< 500 nM

---

Listed compounds paired with reported EC50
Test system: HBV
Assay: Anti-HBV activity in vitro: quantification of extracellular HBV DNA by direct qPCR in HepAD38 cells
Format: cell-based
Conditions: Hepatitis B virus, doxycycline-free medium, 96 hours at 37°C, 8-point dose-response curve, read-out: HBV inh EC50
Method: HepAD38 cell line (Ladner et al., Antimicrob Agents Chemother, 1997, 41, 1715-20) was used for HBV inhibition assays. […] HBV inhibition activity in vitro was performed in 96 multiwell plates. […] From the dose-response curves, half maximal effective concentration (EC50) could be calculated (see also below). […]

[
  {
    "compound": "Cn1cc2c(c1C(=O)Nc1ccc(F)c(C(F)F)c1)OC[C@]1(CCN(C(=O)C(=O)NC(C)(C)C(F)(F)F)C1)NS2(=O)=O [Example E24]",
    "readout.type": "EC50",
    "val": "< 500 nM"
  }
]

Answer with EC50 of C[C@@H](NC(=O)C(=O)N1CC2(COc3c(c(Cl)n(C)c3C(=O)Nc3ccc(F)c(C(F)F)c3)S(=O)(=O)N2)C1)C(F)(F)F [Example E32] measured for HBV.
< 500 nM

Answer with EC50 of Cn1cc2c(c1C(=O)Nc1ccc(F)c(C(F)F)c1)OC[C@@]1(CCN(C(=O)C(=O)NCC(F)(F)F)C1)NS2(=O)=O [Example E27] measured for HBV.
< 500 nM

Data provenance is patent EP3985010A1.
